experimental_target: ligand binding domain of human ROR gamma (Homo sapiens, UniProt P51449)
Construct: NM_001001523; expressed in transfected cells; host or cells: HEK293T
Sequence (P51449 247-497 isoform P51449-2): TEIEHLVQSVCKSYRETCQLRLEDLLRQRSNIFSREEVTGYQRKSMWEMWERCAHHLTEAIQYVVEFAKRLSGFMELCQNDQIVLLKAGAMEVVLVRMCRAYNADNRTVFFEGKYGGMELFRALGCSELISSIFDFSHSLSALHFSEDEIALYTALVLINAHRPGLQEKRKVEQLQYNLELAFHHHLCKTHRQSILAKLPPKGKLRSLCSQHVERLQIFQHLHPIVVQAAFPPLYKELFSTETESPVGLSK
procedure_text: ROR gamma reporter gene assay (GAL4-RORγ LBD luciferase, Dual-Glo)
Type: cell-based
test_settings: HEK293T cells transfected with pM-ROR gamma, 8 concentrations 3.5 nM to 10.5 μM, 24 h incubation; read-out: result (pIC50, inhibition of RORγ transcriptional activity) (converted)
Hi there, I'd appreciate the recorded IC50 for every entry that follows.
Numbers only, in pM.

[[record]]
compound = "O=C(c1cnn([C@H]2CC[C@H](C(=O)O)CC2)c1C(F)(F)F)N(Cc1ccc(F)cc1)CC(F)c1c(Cl)cccc1Cl (stereo partly shown)"
endpoint = "IC50"
value_observed = 4370


Give IC50 for each of the items listed below.
1. CC1(C)CCC(N(CC(=O)c2c(Cl)cc(F)cc2Cl)C(=O)c2cnn([C@H]3C[C@H](C(=O)O)C3)c2C(F)(F)F)CC1
2. C[C@]1(C(=O)O)CC[C@H](n2ncc(C(=O)N(Cc3cc(F)cc(F)c3)C[C@@H](F)c3c(Cl)cccc3Cl)c2C(F)(F)F)CC1
3. O=C(CN(Cc1cccnc1)C(=O)c1cnn([C@H]2CC[C@H](C(=O)O)CC2)c1C(F)(F)F)c1c(Cl)cncc1Cl
4. CC(C)(C)CN(C[C@@H](O)c1ncccc1Cl)C(=O)c1cnn([C@H]2CC[C@](C)(C(=O)O)CC2)c1C(F)(F)F (stereo in doubt)
5. C[C@]1(C(=O)O)CC[C@H](n2ncc(C(=O)N(CC(=O)c3c(Cl)cc(F)cc3Cl)Cc3cc(F)cc(F)c3)c2C(F)F)CC1
6. O=C(CN(Cc1csc(Cl)n1)C(=O)c1cnn([C@H]2CC[C@H](C(=O)O)CC2)c1C(F)(F)F)c1c(Cl)cncc1Cl
7. CC(C)(C)[C@H]1C[C@@H](CN(CC(=O)c2c(Cl)cncc2Cl)C(=O)c2cnn([C@H]3CC[C@H](C(=O)O)CC3)c2C(F)(F)F)C1

191000
17400
2.04e+06
1.74e+06
513000
331000
912000

// for each compound below, give its IC50
1. CC(C)c1c(C(=O)N(CC(=O)c2c(Cl)cc(F)cc2Cl)C2CCC(C)(C)CC2)cnn1[C@H]1CC[C@](C)(C(=O)O)CC1
2. Cc1cc(Cl)c(C(=O)CN(CC(C)(C)C)C(=O)c2cnn([C@H]3CC[C@](C)(C(=O)O)CC3)c2Cl)c(Cl)c1
3. O=C(CN(CC1CCC(F)(F)CC1)C(=O)c1cnn([C@H]2CC[C@H](C(=O)O)CC2)c1C(F)(F)F)c1c(Cl)cncc1Cl

1: 871000; 2: 26300; 3: 87100

Values compiled from patent US9365522B2.
